All values here come from ChEMBL document CHEMBL1955761.

Measured inhibition by item
Test system: Dengue virus
Assay Text: Inhibition of Dengue virus NS2B-NS3 protease using Abz-NleKRRS-3-(NO2)Y as substrate at 50 uM preincubated for 15 mins measured every sec for 15 mins by fluorimetric analysis

- Molecule Smiles: "O=C1NC(=S)S/C1=C\\c1ccco1"
  Target Or System: "Dengue virus"
  inhibition: "52%"

The compound `O=C1NC(=O)/C(=C/c2c[nH]c3ccccc23)N1` showed inhibition equal to 36%

The compound `O=C1NC(=S)N/C1=C\c1ccc(Cl)cc1Cl` showed inhibition equal to 41%

====

Test system: Dengue virus
Assay Text: Inhibition of Dengue virus NS2B-NS3 protease using Abz-NleKRRS-3-(NO2)Y as substrate at 50 uM preincubated for 15 mins measured every sec for 15 mins by fluorimetric analysis
Calls of active or inactive are those of the source. The calls are words filed in the database; no cut-off is given here.
Observed Property: inhibition

Please review the following examples before continuing.
- Molecule Smiles: "CN(C)c1ccc(/C=C2\\SC(=O)NC2=O)cc1"
  Experimental Result: "20%"
- Molecule Smiles: "O=C1NC(=S)N[C@H]1Cc1ccc(O)cc1"
  Experimental Result: "inactive"
- Molecule Smiles: "O=C1NC(=S)N/C1=C1/CCOc2ccccc21"
  Experimental Result: "43%"
- Molecule Smiles: "COc1ccccc1/C=C1\\SC(=S)NC1=O"
  Experimental Result: "33%"

The compound `NCCCC[C@@H]1NC(=S)NC1=O` showed inhibition equal to 11%

The compound `O=C1NC(=O)/C(=C/c2cccs2)S1` showed inhibition equal to 11%

The compound `O=C1NC(=S)S/C1=C\c1cc(Br)cs1` showed inhibition equal to 47%

The compound `O=C1NC(=S)S/C1=C\c1sccc1Br` showed inhibition equal to 60%

====

Target Or System: Prothrombin (Bos taurus)
Assay Text: Inhibition of bovine plasma thrombin using Boc-Val-Pro-Arg-AMC as substrate at 25 uM preincubated for 15 mins measured after 10 mins by fluorimetric assay
Active and inactive are the calls of the source. No cut-off for these calls is given here.
Observed Property: inhibition

Please review the following examples before continuing.
- Compound: "C/C(=C1/SC(=S)NC1=O)c1cccs1"
  inhibition: "17%"
- Compound: "O=C1NC(=S)N/C1=C\\c1c[nH]c2ccccc12"
  inhibition: "22%"
- Compound: "O=C1NC(=O)/C(=C/c2ccc(O)c(O)c2)S1"
  inhibition: "37%"
- Compound: "Cn1cc(/C=C2\\SC(=O)NC2=O)c2ccccc21"
  inhibition: "25%"

The compound `O=C1NC(=S)N/C1=C\c1ccco1` showed inhibition equal to 14%

The compound `O=C1NC(=S)N/C1=C\c1ccc(Cl)cc1Cl` showed inhibition equal to 20%

The compound `Cn1cc(/C=C2\NC(=S)NC2=O)c2ccccc21` showed inhibition equal to 22%

The compound `COc1ccc(/C=C2\NC(=O)NC2=O)cc1` showed inhibition equal to 10%

The compound `O=C1NC(=O)/C(=C/c2ccco2)S1` showed inhibition equal to 19%

The compound O=C1NC(=O)C(Cc2cccs2)N1 (stereo not drawn) showed inhibition equal to inactive

The compound `C/C(=C1/NC(=S)NC1=O)c1cccs1` showed inhibition equal to 20%

The compound `O=C1NC(=O)/C(=C/c2ccccc2)S1` showed inhibition equal to 15%

The compound `O=C1NC(=O)[C@@H](Cc2ccccc2)N1` showed inhibition equal to inactive

The compound `O=C1NC(=O)/C(=C/c2sccc2Cl)S1` showed inhibition equal to 11%

The compound `O=C1NC(=S)N/C1=C\c1c(F)c(F)c(F)c(F)c1F` showed inhibition equal to 29%

The compound `C/C(=C1/NC(=S)NC1=O)c1ccc(C2CCCCC2)cc1` showed inhibition equal to inactive

The compound `O=C1NC(=O)/C(=C/c2c[nH]c3ccccc23)N1` showed inhibition equal to 15%

The compound `N#Cc1ccc(/C=C2\NC(=S)NC2=O)cc1` showed inhibition equal to 11%
